experiment: qHTS assay to identify small molecule antagonists of the androgen receptor (AR) signaling pathway using the MDA cell line in the presence of 0.5 nM R1881 - cell viability counter screen (AID 1259242); settings: MDA-kb2 viability, CellTiter-Fluor protease fluorescence, 16 h; series mostly up to 92.4 µM; further: nearly all actives have a fitted effect of over 45% in size
Inconclusive results are not listed. Active and inactive are the calls of the source. The call rests on the fitted dose curve; in most records, active means well fitted cell-killing curve with a large enough effect in the repeat runs; inconclusive means weak or mixed curves, or effect the other way; inactive means flat fitted curve, though single readings scatter.
Possible outcomes: active, inactive

Compound	Label Class
CC(C)(C)N(NC(=O)c1ccc(Cl)cc1)C(=O)c1ccccc1	inactive
CC(C)C1(C)N=C(c2ncccc2C(=O)O)NC1=O (stereo unspecified)	inactive
OCCSSCCO	inactive
CCC(C)Cl (stereo unspecified)	inactive
Cc1ncc(C[n+]2csc(CCO)c2C)c(N)n1	inactive
Nc1ccccc1C(=O)OCC(O)CO (stereo unspecified)	inactive
NC(=O)CF	inactive
COc1ccc2c(c1OC)C(=O)O[C@H]2[C@@H]1c2cc3c(cc2CCN1C)OCO3	inactive
O=S(=O)(Cl)Cl	inactive
NP(N)(=O)NC(=O)c1ccc(F)cc1	inactive
CN(C)N	inactive
CCCCC(CC)COC(=O)c1c(Br)c(Br)c(Br)c(Br)c1C(=O)OCC(CC)CCCC (stereo unspecified)	inactive
O=CC=O	inactive
CCCCNC(=O)OCC#CI	active
CCC1CCC(=O)O1 (stereo unspecified)	inactive
CCCC[N+](CCCC)(CCCC)CCCC	inactive
CCc1cnc(C2=NC(C)(C(C)C)C(=O)N2)c(C(=O)O)c1 (stereo unspecified)	inactive
CC1(C)[C@H](C(=O)O[C@H](C#N)c2cccc(Oc3ccccc3)c2)[C@@H]1C=C(Br)Br	inactive
O=C(Cc1ccccc1)OCCc1ccccc1	inactive
CCC(=O)O[C@@H]1C=C2CCC3C(CCC4(C)C3CC[C@@H]4OC(=O)CC)C2CC1 (stereo partly specified)	inactive
Cc1cnc(C2=NC(C)(C(C)C)C(=O)N2)c(C(=O)O)c1 (stereo unspecified)	inactive
CCCCC#N	inactive
CN(C1CCCCC1)C1CCCCC1	inactive
CC(C)CCON=O	inactive
O=C(O)COc1cc(Cl)c(Cl)cc1Cl	inactive
FC(Cl)(Cl)C(F)(Cl)Cl	inactive
